# System: HT29 colon
# assayMethodText: NCI tumour cell line growth inhibition, 48 h
Where a SMILES comes first, the peptide text is derived from it. [ ]: non-standard residue; d: D form.
# TGI per entry

1. CC1(C)CC(=O)C(CC2C(=O)CCCC2=O)C(=O)C1
> 100 µM
2. CCOC(=O)Cc1[nH]c(C(=O)c2ccccc2)cc1C(=O)c1ccccc1
> 10 µM
3. CC(C)N1CC2CC(CN(C(=O)c3ccc(Cl)cc3)C2)C1
> 100 µM

With those in mind, consider the next molecule.
Which TGI reading was recorded for the molecule CC(C)C[C@H](NC(=O)[C@H](CC(C)C)NC(=O)[C@@H](Cc1c[nH]c2ccccc12)NC(=O)[C@H](Cc1ccccc1)NC(=O)[C@@H](Cc1c[nH]c2ccccc12)NC(=O)[C@H](CCC(N)=O)NC(=O)[C@@H](CCC(N)=O)NC(=O)[C@@H]1CCCN1C(=O)[C@@H](CCCCN)NC(=O)[C@H]1CCCN1C(=O)[C@H](N)CCCN=C(N)N)C(N)=O (H-[dR][dP][dK]P[dQ]Q[dW]F[dW]LL-NH2) ? > 100 µM

====

# Tested on: MALME-3M melanoma
# assayMethodText: NCI tumour cell line growth inhibition, 48 h
reportedProperty: GI50

1) CCC(=O)NC1=C(Cl)C(=O)C(NC(=O)CC)=C(Cl)C1=O
5.17 µM

Requested read-out GI50, target or system MALME-3M melanoma, entry Oc1c(C(c2ccc(F)cc2)N2CCCCC2)ccc2cncnc12 (centres undefined) 1.17 µM

Further, for `CCN1CCN(c2ccc(NC(=O)Nc3nc4ccc(-c5ccccc5OC)cc4s3)cc2)CC1` ? 1.71 µM

Further, for `Clc1cnc(Nc2ccc(OCCN3CCCC3)cc2)nc1NCc1ccco1` ? 2.1 µM

====

# TGI per entry
# System: IGROV1 ovarian
# assayMethodText: NCI tumour cell line growth inhibition, 48 h

Would you please look over these solved cases?
1) O=[N+]([O-])c1c(O)c2nonc2c2nn(-c3ccccc3)nc12
> 100 µM
2) COC1C(O)C(C)OC(O[C@H]2CC[C@@]3(C)C(CC[C@@H]4[C@@H]3CC[C@]3(C)[C@@H](C(C)OC5OC(CO)C(O)C(O)C5O)CC[C@]43O)C2)C1O (stereo partly specified)
> 25 µM
3) CC1=CC(C)=N/C(=N/S(=O)(=O)c2cc(C)c(Cl)cc2SCc2ccccc2)NN1
> 100 µM
4) CCSC12OC3(CCCCCN3C1=O)C1C(=O)N(c3ccccc3)C(=O)C12 (stereo unspecified)
> 100 µM
5) N#C/C(=C\c1ccc[nH]1)c1cc(-c2ccc(Cl)cc2)nn1-c1ccccc1
> 95.4 µM
6) COc1ccc(NC(=O)CSC(=O)c2ccccc2)c(SCCSSCCSc2cc(OC)ccc2NC(=O)CSC(=O)c2ccccc2)c1
> 100 µM
7) Cc1cnc2c(c1)C(=O)N(c1ccc(Oc3ccccc3)cc1)S2(=O)=O
> 100 µM
8) CC1(C)CC(=O)C(CC2C(=O)CCCC2=O)C(=O)C1
> 100 µM
9) COc1ccc(N=NC2=C(O)CCC2=O)cc1
> 100 µM
10) CN1C(=O)N(C)C2C1NC(=S)N2/N=C/C=C/c1ccccc1[N+](=O)[O-] (stereo unspecified)
> 100 µM

With those in mind, consider the next compound.
Which TGI reading was recorded for the compound O=C(NC1CCC[C@H]1OC(=O)c1ccccc1)c1ccccc1 (stereo partly specified) ? > 100 µM
